- ASSAY INFO: Toxicity in rat assessed as survival rate administered locally in caudate nucleus of brain measured after 30 days relative to control
- Type: tissue-based
- TEST SETTINGS: in vivo, route it, time 30 day
READOUT: survival at 720 h (%)
// note: answer is a bare numeric in %

What measured survival at 720 h goes with "CCOC(=O)C[C@H](N)c1ccccc1O.Cl" ? 100

----------
- ASSAY INFO: Cytotoxicity against mouse N13 cells assessed as cell growth inhibition incubated for 24 hrs by MTT assay
- Assay type: functional, cell-based
- TEST SETTINGS: N13, 24 h
Entries and their measured IC50 follow.
// note: answer is a bare numeric in µM

Previously resolved entries follow.
N[C@H]1CC(=O)Oc2ccccc21 = 1570
CCOC(=O)C[C@H](N)c1ccc(OC)cc1O = 340
CCOC(=O)C[C@H](N)c1cc(Br)ccc1O = 500
CCOC(=O)C[C@H](N)c1cc(OC)ccc1O = 40
CCOC(=O)C[C@H](N)c1cc([N+](=O)[O-])ccc1O = 660

What measured IC50 goes with "CCOC(=O)C[C@@H](N)c1ccccc1O" ? 450

What do you get for "CCOC(=O)C[C@H](N)c1cc(Br)cc(OC)c1O" ? 220

The reported numbers originate from ChEMBL document CHEMBL5352420.
